Below, each entry is listed alongside its reported pEC50.
# TEST SYSTEM: Free fatty acid receptor 1 (Homo sapiens, UniProt O14842)
# Sequence (O14842 whole entry): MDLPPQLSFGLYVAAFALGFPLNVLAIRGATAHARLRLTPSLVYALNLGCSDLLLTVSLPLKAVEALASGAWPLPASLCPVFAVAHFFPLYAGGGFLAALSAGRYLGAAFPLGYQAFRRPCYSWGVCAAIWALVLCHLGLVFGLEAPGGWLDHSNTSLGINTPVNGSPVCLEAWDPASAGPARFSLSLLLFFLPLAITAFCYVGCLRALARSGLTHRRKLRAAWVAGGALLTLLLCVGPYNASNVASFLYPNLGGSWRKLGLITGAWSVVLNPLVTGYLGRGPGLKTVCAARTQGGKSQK
# ASSAY NOTES: Agonist activity at N-terminal FLAG tagged human FFAR1 transfected in African green monkey COS-7 cells assessed as accumulation of inositol phosphate incubated for 90 mins by TopCount NXT counter based analysis
// scale note: pEC50 = -log10(conc_M); give the bare number

Some solved entries appear below for comparison.
1) Cc1ccc(Nc2nc(N)nc(COc3cc(Cl)cc(N4CCCC4=O)c3)n2)cc1Cl : 6.80
2) Cc1ccc(Nc2nc(N)nc(COc3ccc4c5c(c(=O)oc4c3)CCC5)n2)cc1 : 5.65

Could you now consider this next compound?
Recorded pEC50 (compound Cc1cc(OCc2nc(N)nc(NCCc3ccc(C)c(Cl)c3)n2)cc(N2CCCC2=O)c1 ): 8.15

====

# ASSAY NOTES: Lipophilicity, logD of the compound
# Format: physicochemical
# CONDITION PARAMETERS: octanol/water
OUTCOME MEASURE: logD
API note: the answer field is a bare number with no unit suffix.

1) Cc1cc(OCc2nc(N)nc(NCC(C)c3cccc(Cl)c3)n2)cc(N2CCCC2=O)c1 (configuration not stated) : 3.93
2) Cc1cc(OCc2nc(N)nc(NCCc3cccc(F)c3)n2)cc(N2CCCC2=O)c1 : 3.32
3) Cc1cc(OCc2nc(N)nc(NCCc3cccc4c3OC(F)(F)O4)n2)cc(N2CCCC2=O)c1 : 3.42
4) Cc1cc(OCc2nc(N)nc(NCCc3cccc(Cl)c3)n2)cc(N2CCCC2=O)c1 : 3.77
5) Cc1cc(OCc2nc(N)nc(NCCc3ccccc3N3CCOCC3)n2)cc(N2CCCC2=O)c1 : 2.93
6) Cc1cc(OCc2nc(N)nc(NCCC3CCCCC3(F)F)n2)cc(N2CCCC2=O)c1 (configuration not stated) : 3.53

Could you now consider this next molecule?
Recorded logD (molecule Cc1cc(OCc2nc(N)nc(NC3(Cc4cccc(Cl)c4)CC3)n2)cc(N2CCCC2=O)c1 ): 3.82

====

# TEST SYSTEM: Free fatty acid receptor 4 (Homo sapiens, UniProt Q5NUL3)
# Sequence (Q5NUL3 whole entry): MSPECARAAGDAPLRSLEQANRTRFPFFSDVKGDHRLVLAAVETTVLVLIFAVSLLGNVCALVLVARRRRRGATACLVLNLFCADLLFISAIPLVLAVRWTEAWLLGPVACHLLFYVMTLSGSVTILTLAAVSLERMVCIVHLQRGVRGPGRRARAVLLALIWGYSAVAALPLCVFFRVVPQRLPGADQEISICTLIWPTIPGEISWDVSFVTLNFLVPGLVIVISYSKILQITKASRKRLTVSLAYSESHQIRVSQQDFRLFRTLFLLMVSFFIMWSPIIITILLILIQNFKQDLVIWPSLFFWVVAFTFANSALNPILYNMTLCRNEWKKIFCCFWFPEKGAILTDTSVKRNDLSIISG
# ASSAY NOTES: Agonist activity at N-terminal FLAG tagged human FFAR4 transfected in African green monkey COS-7 cells assessed as accumulation of inositol phosphate incubated for 90 mins by TopCount NXT counter based analysis
OUTCOME MEASURE: log10 of EC50 (log10 of the value in µM)
Please note: log10 values; quantity EC50; unit µM.

1) Cc1cc(OCc2nc(N)nc(NCCc3ccc(Cl)c(Cl)c3)n2)cc(N2CCCC2=O)c1 : -1.26
2) Cc1cc(OCc2nc(N)nc(Nc3ccc(C)c(Cl)c3)n2)cc(N2CCCC2=O)c1 : -0.22
3) Cc1ccc(Nc2nc(N)nc(COc3ccc4ccc(=O)oc4c3)n2)cc1 : 0.64

Recorded log10 of EC50 (compound Cc1ccc(Nc2nc(N)nc(COc3cc(N4CCCC4=O)cc(C(C)(C)C)c3)n2)cc1Cl ): -0.19

Recorded log10 of EC50 (compound Cc1cc(OCc2nc(N)nc(NCCc3ccc(Cl)c(C)c3)n2)cc(N2CCCC2=O)c1 ): -2.40

Recorded log10 of EC50 (compound COc1cc(OCc2nc(N)nc(Nc3ccc(C)c(Cl)c3)n2)cc(N2CCCC2=O)c1 ): -0.22

Recorded log10 of EC50 (compound Cc1ccc(Nc2nc(N)nc(COc3cccc(N4CCCCC4=O)c3)n2)cc1Cl ): 1.22
